Sourced from patent US12493025B2

# System: UMUC-3 bladder cancer cells
# Protocol Details: Cancer cell viability in clusters co-cultured with UTI89 (CT and CL models), Calcein-AM/Hoechst; doxorubicin dose-response
# Assay type: cell-based, human
# Experimental Conditions: Homo sapiens, UMUC3; CL model (intratumoral UTI89), MOI 1:1; concentration giving 50% cell viability; read-out: IC50 of doxorubicin on cancer cells with the CL model
Measured Parameter: pIC50
Note on pIC50: it is the negative log10 of concentration, concentration in mol/L.

## Input Identify pIC50 associated with the compound COc1cccc2c1C(=O)c1c(O)c3c(c(O)c1C2=O)C[C@@](O)(C(=O)CO)C[C@@H]3O[C@H]1C[C@H](N)[C@H](O)[C@H](C)O1
## Output 5.80
